Reference source: ChEMBL document CHEMBL2046378

# target: ABCG2 (Homo sapiens, UniProt Q9UNQ0)
# Sequence (Q9UNQ0 whole entry): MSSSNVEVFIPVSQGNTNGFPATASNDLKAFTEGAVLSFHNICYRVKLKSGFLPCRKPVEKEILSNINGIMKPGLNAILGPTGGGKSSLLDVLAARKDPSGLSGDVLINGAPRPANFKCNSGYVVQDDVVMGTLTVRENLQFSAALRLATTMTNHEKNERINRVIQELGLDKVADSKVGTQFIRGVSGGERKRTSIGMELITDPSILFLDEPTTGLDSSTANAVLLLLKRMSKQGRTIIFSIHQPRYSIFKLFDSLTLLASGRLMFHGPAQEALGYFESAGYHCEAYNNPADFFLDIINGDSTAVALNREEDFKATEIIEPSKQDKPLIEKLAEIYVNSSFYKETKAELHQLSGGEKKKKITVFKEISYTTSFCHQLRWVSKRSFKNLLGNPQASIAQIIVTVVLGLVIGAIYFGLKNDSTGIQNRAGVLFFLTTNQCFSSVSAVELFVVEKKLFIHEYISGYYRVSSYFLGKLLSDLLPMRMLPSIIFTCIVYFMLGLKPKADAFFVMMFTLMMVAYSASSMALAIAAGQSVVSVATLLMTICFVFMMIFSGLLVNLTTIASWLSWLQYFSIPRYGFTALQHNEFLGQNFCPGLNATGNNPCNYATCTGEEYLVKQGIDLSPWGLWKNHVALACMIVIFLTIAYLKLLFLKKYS
# assay.explanation: Inhibition of ABCG2-mediated mitoxantrone efflux expressed in HEK293 cells at 5 uM after 48 hrs by flow cytometric analysis
# Format: cell-based
# cond: HEK293 cells expressing ABCG2, probe mitoxantrone
measurement.label: inhibition at 48 h, 5 µM (%)
One number for each entry, in %.

# input Could you share what inhibition at 48 h, 5 µM was measured for COc1cc2c(cc1OC)CN(CCc1ccc(NC(=O)c3cccc4c(=O)c5cccc(OC)c5[nH]c34)cc1)CC2 , tested on ABCG2 (Homo sapiens, UniProt Q9UNQ0)?
# output 100

====

# assay.explanation: Cytotoxicity against human HEK293 cells transfected with ABCG2 after 72 hrs by MTT assay
# Assay type: ADME, cell-based
# cond: read-out: IG50
Answer each item with its documented log10 of GI50 at 72 h.
Would you kindly interpret these values as log10 of GI50 at 72 h expressed in µM?

// worked examples, log10 of GI50 at 72 h included
{"smi": "COc1cccc(/C=C/C(=O)c2c(O)cc(OC)cc2OC)c1", "log10 of GI50 at 72 h": 1.00}
{"smi": "COc1cc(OC)c(/C=C/C(=O)c2cn(C)c3ccc(OC)cc23)c(OC)c1", "log10 of GI50 at 72 h": 0.00}
{"smi": "COc1cc(O)c(C(=O)/C=C/c2c(OC)cccc2OC)c(OC)c1", "log10 of GI50 at 72 h": 1.70}
{"smi": "COc1cc(OC)c(/C=C/C(=O)c2cn(C)c3ccccc23)c(OC)c1", "log10 of GI50 at 72 h": 0.60}
{"smi": "COc1cc(/C=C/C(=O)c2c(O)cc(OC)cc2OC)cc(OC)c1", "log10 of GI50 at 72 h": 0.78}

Now look at this entry.
# input // lookup log10 of GI50 at 72 h for COc1cccc(OC)c1/C=C/C(=O)c1cn(C)c2ccccc12
# output 1.70
